From: patent US12473560

# measurementTarget: SARS-CoV-2 Spike protein receptor-binding domain (RBD) (SARS-CoV-2, UniProt P0DTC2 319-527)
# assayProtocol: BLI (Octet), IgG1 captured on anti-human Fc sensors, RBD in solution; further: test concentration or dose not given here
Consider the following binders; for each one, report its Req.
Numbers only, in nm shift.

INSERT INTO assay_data (binder, unitabbrev, valuemeasured) VALUES
  ('AB-1 full-length IgG1 (antibody, V domains shown) VH: EVQLEESGTVLARPGASVKMSCKASGYTFTTYWMHWIKQRPGQGLEWIGAIYPGNSDTQYNQKFKDKAKLTAVKSTSSAYMELSSLTNEDSAVYFCTREGIPQLLRTLDYWGQGTSVTVSS VL: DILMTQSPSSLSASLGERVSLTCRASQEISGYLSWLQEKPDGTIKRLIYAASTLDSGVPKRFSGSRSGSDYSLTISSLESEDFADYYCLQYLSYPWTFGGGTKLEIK', 'nm shift', 0.388),
  ('AB-10 full-length IgG1 (humanized) (antibody, V domains shown) VH: QVQLVQSGAEVKKPGASVKVSCKASGYTFTSYWMHWVRQAPGQGLEWMGAIYPGNGDTNYAQKFQGRVTMTADTSISTAYMELSRLRSDDTAVYYCTREGIPQLLNTLDVWGQGTLVTVSS VL: DIQMTQSPSSLSASVGDRVTITCRASQEISGYLNWYQQKPGKAPKRLIYAASSLQSGVPSRFSGSGSGTDFTLTISSLQPEDFATYYCQQYLSYPWTFGQGTKVEIK', 'nm shift', 0.102),
  ('AB-12 full-length IgG1 (humanized) (antibody, V domains shown) VH: EVQLVQSGAEVKKPGESLKISCKASGYTFTTYWMHWVRQMPGKGLEWMGAIYPGNSDTRYSPSFQGQVTLSVDKSITTAYLQWNSLKASDTAMYFCTREGIPQLLRTLDYWGQGTLVTVSS VL: DIQMTQSPSSLSASVGDRVTITCRASQGISGYLSWLQQKPEKAPKRLIYAASTLQSGVPSRFSGSGSGTDFTLTISSLQPEDFATYYCQQYLSYPWTFGQGTKLEIK', 'nm shift', 0.135),
  ('AB-5 full-length IgG1 (antibody, V domains shown) VH: EVQLEESGTVLARPGASVKMSCKASGYTFTSYWMHWIKQRPGQGLEWIGAIYPGNGDTNYNQKFKDKAKLTAVKSTSSAYMELSSLTNEDSAVYFCTREGIPQLLNTLDVWGQGTSVTVSS VL: DILMTQSPSSLSASLGERVSLTCRASQEISGYLSWLQEKPDGTIKRLIYAASTLDSGVPKRFSGSRSGSDYSLTISSLESEDFADYYCQQYLSYPWTFGGGTKLEIK', 'nm shift', 0.318);

Next binder, please.
Q: Please indicate Req recorded for AB-11 full-length IgG1 (humanized) (antibody, V domains shown) VH: EVQLVQSGAEVKKSGESLKISCKASGYTFTTYWMHWVRQMPGKGLEWMGAIYPGNSDTQYSPSFQGQVTLSADKSISTAYLQWSSLKASDTAMYFCTREGIPQLLRTLDYWGQGTLVTVSS VL: EIVLTQSPGTLSLSPGERATLSCRASQEISGYLAWLQQKPGQAPRRLIYAASSLATGIPDRFSGSGSGTDFTLTISRLEPEDFAVYYCLQYLSYPWTFGQGTKVEIK
Result: 0.326
